Reported Percent Fatty Acid Uptake Inhibition is given for each of the following binders.
- measured.target: human CD36 (on HEK 293 or SCC25 cells) (human, UniProt P16671 2-472); note: test concentration or dose not given here
- Sequence (P16671 2-472 limits assumed): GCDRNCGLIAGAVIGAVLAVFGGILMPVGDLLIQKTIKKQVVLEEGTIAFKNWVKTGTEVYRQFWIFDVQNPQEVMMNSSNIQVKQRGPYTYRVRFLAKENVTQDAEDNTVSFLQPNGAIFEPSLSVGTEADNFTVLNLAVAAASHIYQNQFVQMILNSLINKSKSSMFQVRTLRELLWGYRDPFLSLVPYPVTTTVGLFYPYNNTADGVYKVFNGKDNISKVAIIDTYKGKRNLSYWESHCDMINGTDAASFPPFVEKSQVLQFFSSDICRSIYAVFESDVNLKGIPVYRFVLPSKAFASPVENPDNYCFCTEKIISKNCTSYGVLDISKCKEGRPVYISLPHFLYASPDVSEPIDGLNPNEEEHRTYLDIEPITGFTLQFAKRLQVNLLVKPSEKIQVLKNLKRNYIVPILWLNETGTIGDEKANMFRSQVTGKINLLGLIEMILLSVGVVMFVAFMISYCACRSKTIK
- assay.info: cell-based or functional assay

# binder, Percent Fatty Acid Uptake Inhibition, %
records = [
    ("12G04 (antibody, human IgG1, V domains shown, Chimeric: mouse variable regions on human IgG1 LALA (L234A/L235A); also called 012G04) VH: EVQLVESGGGLVQPGESLKLSCESNEYEFPSHDMSWVRKTPEKRLELVAAINSDGGYTYYPDTMERRFIISRDNTKKTLYLQMSSLRSEDTALYYCARHGYDYDEEGAWFAYWGQGTLVTVSA VL: ETTVTQSPASLSMAIGEKVTIRCITSTDIDDDMNWYQQKPGEPPKLLISEGNTLRPGVPSRFSSTGYGTDFVFSIENMLSEDVADYYCLQSDNLPFTFGSGTKLEIK", 43.8),
    ("28G04 (antibody, human IgG1, V domains shown, Chimeric: mouse variable regions on human IgG1 LALA (L234A/L235A); also called 028G04) VH: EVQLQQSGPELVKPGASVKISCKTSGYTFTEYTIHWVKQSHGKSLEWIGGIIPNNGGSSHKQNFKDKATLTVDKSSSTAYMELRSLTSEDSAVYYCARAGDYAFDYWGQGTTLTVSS VL: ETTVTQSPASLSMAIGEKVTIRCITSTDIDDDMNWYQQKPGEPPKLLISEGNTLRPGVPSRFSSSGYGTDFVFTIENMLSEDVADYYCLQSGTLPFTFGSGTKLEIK", 39.7),
    ("6G04 (antibody, human IgG1, V domains shown, Chimeric: mouse variable regions on human IgG1 LALA (L234A/L235A); also called 06G04; 006G04) VH: QVQLQQSGAELVMPGASVKMSCKASGYTFTDYWMHWVKQRPGQGLEWIGSIDTSDSYTTYSQKFKGKATLTVDESSSTAYMELARLTSEDSAIYYCVRGEDYEGTWFAYWGQGTLVTVSA VL: ETTVTQSPASLSVATGEKVTIRCITSTDIDDDMNWYQQKPGEPPKLLISEGNTLRPGVPSRFSSSGYGTDFVFTIENTLSEDVADYYCLQSDNMPLTFGAGTKLELK", 35.1),
    ("7G04 (antibody, human IgG1, V domains shown, Chimeric: mouse variable regions on human IgG1 LALA (L234A/L235A); also called 07G04; 007G04) VH: QVQMKESGAELVRPGASVKLSCKALGYTFTDYEIQWVKQTPVHGLEWIGGIHPGSSGIVYNQKFKGKATLTADKSSSTAYMELSSLTSEDSAVYYCTRGGGYDGAWFAYWGQGSLVTVSA VL: ETTVTQSPASLSMAIGEKVTIRCITSTDIDDDMNWYQQKPGEPPKLLISEGNTLRPGVPSRFSSSGYGTDFVFTIENMLSEDVADYYCLQSDNLPFTFGSGTKLEIK", 37.4),
    ("11G04 (antibody, human IgG1, V domains shown, Chimeric: mouse variable regions on human IgG1 LALA (L234A/L235A); also called 011G04) VH: EVQLQQSGAELVRPGASVTLSCKASGYRFSDYEMQWVKQTPVHGLEWIGGIDPETGGIAYNQKFKVKATLTADKSSSTAFMELRSLTSEDSAVYYCTRKLDFDYWGQGTTLTVSS VL: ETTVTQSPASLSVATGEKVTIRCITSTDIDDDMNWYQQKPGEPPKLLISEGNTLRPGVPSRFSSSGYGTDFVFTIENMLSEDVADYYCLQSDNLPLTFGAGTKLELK", 41.6),
    ("14G04 (antibody, human IgG1, V domains shown, Chimeric: mouse variable regions on human IgG1 LALA (L234A/L235A); also called 014G04) VH: QVQLQQSGAELVRSGASVRLSCTASGFNIKDYYIHWVKQRPEQGLEWIGWIDPENGDTEYAPRFQDKATMTADTSSNTAYLQLSSLTSEDTAVYYCNGWLLSGNGMDYWGQGTSVTVSS VL: DIVMTQSHKFMSTSVGDRVSITCKASQDVGTAVAWYQQKPGQSPKLLIYWASTRHTGVPDRFTGSGSGTDFTLTISNVQSEDLADYFCQQYSSYPTFGGGTKLEIK", 45.1),
]
